Data origin: ChEMBL document CHEMBL4393737

Assay: Inhibition of Saccharomyces cerevisiae alpha-glucosidase using para-nitrophenyl-alpha-D-glucopyranoside as substrate preincubated for 5 mins followed by substrate addition and measured after 5 mins
Conditions: read-out: IC50
readoutType: IC50 (µM)

COc1ccc(/C=N\NC(=O)c2ccc3ncccc3c2)c(O)c1 : 21.6
O=C(N/N=C\c1ccccn1)c1ccc2ncccc2c1 : 38.4
COc1ccc(O)c(/C=N\NC(=O)c2ccc3ncccc3c2)c1 : 18.4
O=C(N/N=C\c1ccccc1[N+](=O)[O-])c1ccc2ncccc2c1 : 37.6

P: O=C(N/N=C\c1cccc(O)c1O)c1ccc2ncccc2c1
Q: O=C(N/N=C\c1cccc(F)c1)c1ccc2ncccc2c1
R: O=C(N/N=C\c1ccco1)c1ccc2ncccc2c1
S: O=C(N/N=C\c1ccc(O)cc1O)c1ccc2ncccc2c1
Rank order required: IC50, descending. Ranked list of labels, please, in the requested order.
Q, R, S, P

1: O=C(N/N=C\c1cccs1)c1ccc2ncccc2c1
2: O=C(N/N=C\c1ccc(O)cc1)c1ccc2ncccc2c1
3: O=C(N/N=C\c1cc(O)ccc1O)c1ccc2ncccc2c1
Order each entry by recorded IC50, climbing from the minimum. Ranked list of labels, please, in the requested order.
3, 2, 1

###

Test: Inhibition of Saccharomyces cerevisiae alpha-glucosidase using para-nitrophenyl-alpha-D-glucopyranoside as substrate preincubated for 5 mins followed by substrate addition and measured after 5 mins
Settings: read-out: IC50
readoutType: IC50 (µM)

O=C(N/N=C\c1ccccc1O)c1ccc2ncccc2c1 : 13.2

I: COc1ccc(/C=N\NC(=O)c2ccc3ncccc3c2)cc1O
II: O=C(N/N=C\c1ccc(O)c(O)c1)c1ccc2ncccc2c1
III: O=C(N/N=C\c1ccc(F)cc1)c1ccc2ncccc2c1
Rank order required: IC50, descending. Ranked list of labels, please, in the requested order.
III, I, II
